# System: K4 kissing-loop RNA reporter
# protocol_description: apparent KD of K4 kissing-loop reporter; higher = weaker reporter binding
# condition: Eterna round: R107; input ligand: FMN 200 uM
property_name: apparent KD of K4 kissing-loop reporter (nM)
I only need the number, in nM, no unit after it.

Query string: Let me know recorded apparent KD of K4 kissing-loop reporter for CGUAGCAGAUGAAGGAGCGGCUACCUGUAUCAGGCAACUGCCUGAGUGAUGUUCAGGUAUAGCCAGGUAGGUCGCAUCUGCUACG [Arg B Ex t9b] , thanks.
Result string: 240

Query string: Supply measured apparent KD of K4 kissing-loop reporter of CGUUUAUAGCAGGAUACCAGUACCCAUUAUGUACGUUUAUAGUAGAGUGAUGUUCUAAAGUACCCUUGGCAGCUUCCCGUGACCC [ExTheophylB.Z] in your reply.
Result string: 113

Query string: Using the record for UCCUGCAAUCUGCCACGAAAGUGGGUUGAUACCAGAGUCGAAAGACUCCCUUGGCAGCGAGUGAUGUUCGUUGCAGGUAAAUAAA [MatMod 8 - Jieux - Exclusion - Theophylline A] , state its measured apparent KD of K4 kissing-loop reporter.
Result string: 194

Query string: Tell me its apparent KD of K4 kissing-loop reporter given GUGAAGGAGCUGCAGUGAUGUUGCAGAAACUAGGAUAUCAGGAAACUGAGAAGGAGUCAACUCCUUCACCUAAAUACUGCAGAAA [KL-SSFMN-A23] as the entry.
Result string: 104

Query string: Please give measured apparent KD of K4 kissing-loop reporter of the following entry: GUAAUCUUGCUCGAGUGAUGUUCGAGCGAAGGAGCGCGAGAAAUCGCAGGUAGGUCGCGCUCGAAAUAUGAGCGAACAAUUAUUA [Arg A Ex t2b]
Result string: 222

Query string: Identify measured apparent KD of K4 kissing-loop reporter corresponding to UAUAUAGUGACGGCCGCCACUAUUGUGAUUUAAUUGUUAGAGUGAUGUUUUGUUGUUUGAUUUUGUAGGACCGGGUUAUAUGUUA [vnbbwzmullin]
Result string: 1090

----------
What apparent KD of MS2 coat protein was measured for each of the following?
# Test system: MS2 coat protein
# protocol_description: apparent KD of MS2 coat protein; designed switch direction (-1 OFF switch, 1 ON switch): -1; higher = weaker reporter binding
# condition: input ligand: FMN 200 uM
Give a bare numeral; the unit nM is implied.

Query string: Report apparent KD of MS2 coat protein, nothing else, for this sequence: CUUGCGGACAAAGGAUAUUGCGGUGACCGGCUCGGCGUACCGAGCCUACAUGAGGAUCACCCAUGUAAGAAGGUUGACGCUGGU [JL ViennaUCT Qudice mod 4] (Eterna round: R96, puzzle: Exclusion NG 2)
Result string: 106

Query string: Please supply the value of reported apparent KD of MS2 coat protein for the item GGACCCAAAGGAUAUACUUGAGGAUCACCCAAGUAUGUCGCUUGGGCACGGUAAAGGAGUAGAAGGUUGGGAAA [Esri] (Eterna round: R97, puzzle: Exclusion 3)
Result string: 17.6

Query string: Consider the sequence UAGUGAGCGUGAGGAAUAUACAUGAGGAUCACCCAUGUUUGCUACUAUCUUGCUCGUCUUAUAACAACAAUUAACUG [mod-hagla-honey#50] (Eterna round: R97, puzzle: Sensor, turn-off variant 1) . State its measured apparent KD of MS2 coat protein.
Result string: 14.8

Query string: Output apparent KD of MS2 coat protein of GCUGGUCAAGGAUAUACAUUCGUGCUUCGGCACGUAAGAUCACAUGAGGAUCACCCAUGUAGAAGGUGACCAGC [E2/5-C1] (Eterna round: R97, puzzle: Exclusion 2)
Result string: 700

Query string: // Input: GAUCCUUCUGUUAGGAUAUGCUUUGGGCUUCCGCAGCAGAAGGAACAUGAGGAUCACCCAUGUCAAAUACCAUC [salish99_bmex4_r4_503] (Eterna round: R97, puzzle: Brourd's mod of Exclusion 4) . Output its apparent KD of MS2 coat protein only.
Result string: 23.1

----------
# Tested on: MS2 coat protein
# protocol_description: apparent KD of MS2 coat protein; designed switch direction (-1 OFF switch, 1 ON switch): -1; higher = weaker reporter binding
# condition: Eterna round: R95; input ligand: none
Hi there, I'd appreciate the recorded apparent KD of MS2 coat protein for every entry that follows.
Answer in nM, number only, no unit symbol.

Query string: Look up and state reported apparent KD of MS2 coat protein for GAUUAUGCGAGCUUUAGGGACAUGAGGAUCACCCAUGUUCGUCUUAUUGAUCUAGAUGCACUGACAUACCUAAAUCU [JMF 77] (puzzle: Sensor v3, turn-off variant 1)
Result string: 17.2

Query string: Entry AGUCUGCGAGGAUAUACAUGAGGAUCACCCAUGUGCGAGAAACUAGUGAGGUCGAUUGGUAGAAGGCGCGGACA [Mat - Exclusion 3 - Mod of JL D87] (puzzle: Exclusion 3) needs its apparent KD of MS2 coat protein filled in; supply it.
Result string: 356

Query string: Give the measured apparent KD of MS2 coat protein for CUUAGCCUAAAAUCACGCAAGCUUUUUGCUUGUCUAAAGACAUGAGGAUCACCCAUGUCCGGGCUGAACUUAUGGAA [Atqusoen] (puzzle: Sensor v3, turn-off variant 2)
Result string: 16

Query string: Give the reported apparent KD of MS2 coat protein for this sequence. GAAAAGGUAGGAUAUCGAGACCAUAACAUGAGGAUCACCCAUGUGAUACCUACAGUGGUCCGAGAAGGACCAUAUA [Iserdianqu] (puzzle: Exclusion 5)
Result string: 19.3

Query string: Identify the reported apparent KD of MS2 coat protein for the following entry. AGUACAUUCACGAAAGUGAAUGUACAAUAAGCUUGUGGAACAUGAGGAUCACCCAUGUCCUCAUAAGCUCGUCUUAU [Mat - Sensor v3 - Turn-off var 2 - D31] (puzzle: Sensor v3, turn-off variant 2)
Result string: 14.6

Query string: Please look at this sequence and report its apparent KD of MS2 coat protein: AAUAACUGAGGAUAUACUAUAAUAUGAAUAAAAUAAAUAAAACAUGAGGAUCACCCAUGUAGAAGGCAGAAUAA [JMF's Not so obvious solution 9] (puzzle: Exclusion 2)
Result string: 24.1

Query string: Provide measured apparent KD of MS2 coat protein value, entry: UAGGAGUCAGGAUAUGCGAGAGAUGGAAGAAAGGGAAGAGAGCAGAAGGGACAUGAGGAUCACCCAUGUAAGGA [JR_Exclu4_Sub090] (puzzle: Exclusion 4)
Result string: 36.1

Query string: Please supply the value of reported apparent KD of MS2 coat protein for the item AGAAGUAGUAACCGAUCCUACAUGAGGAUCACCCAUGUAGCUAGACGUGCACGCGACGCUCGUCAGACUACCAGAUG [salish99_TOv1_r3_029] (puzzle: Sensor v3, turn-off variant 1)
Result string: 418

Query string: For the sequence GGUUGGCGAGGAUAUACAUGAGGAUCACCCAUGUGAGAGAAACAAGUGAGGAAGAAAAGUAGAAGGCGCUGACG [salish99_ex3_r3_023] (puzzle: Exclusion 3) , report apparent KD of MS2 coat protein.
Result string: 37.1

Query string: Quickly give me recorded apparent KD of MS2 coat protein for AGGAAUGAAGGAUAUACAUGAGGAUCACCCAUGUAAAAGGAAAGAGGUGAUGGAGAUAGUAGAAGGUCAAGAAG [JR_Exclusion3_Sub004] (puzzle: Exclusion 3)
Result string: 204

----------
# System: K4 kissing-loop RNA reporter;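 also: bound reporter read as fluorescence of individual clusters on recovered sequencing chips by microscopy, with normalized cluster intensities fitted with a binding model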
# protocol_description: apparent KD of K4 kissing-loop reporter; higher = weaker reporter binding
# condition: Eterna round: R107; input ligand: none
property_name: apparent KD of K4 kissing-loop reporter (nM)
# number only, unit nM dropped from output

Query string: Enter recorded apparent KD of K4 kissing-loop reporter with K4 kissing-loop RNA reporter for UGGAGUUGACGAAAAGUCAACUCCCGAGAAGGAGCGGACGAAAGUCCAGGUAGGUCGCUCGCUACCAGUGAUGUUGGUACGUAAA here.
Result string: 116

Query string: Give apparent KD of K4 kissing-loop reporter for this entry on K4 kissing-loop RNA reporter: UACAUAUUAUUAUUUCUACAUUUAUUUAGUCAGGAUAUCGAUUAAACGAGAAGGGACAAUAUCAAGUGAUGUUUGAUAAUUCAAA [JR_SSFMNA_Sub022]
Result string: 81.6

Query string: State, for K4 kissing-loop RNA reporter, measured apparent KD of K4 kissing-loop reporter of the sequence listed here: UGUUAUGUAUCAGGAUAUUAGUGAUGUUUGUUUAUGUUAGUGAUGUUGAUAUUUGUUUUAUGUAUUUAAGAAGGGAUUGAGAUGU [dcdmullin]
Result string: 45.1

Query string: Output reported apparent KD of K4 kissing-loop reporter of the sequence UGAACUGUCUGCGAUACCAGCUAAGGAGUGAUGUUCCGGCUCGACGAAACGUCGAGCCAUAGCCCUUGGCAGCGCAGACAGUUCA [#28 K4 Theophylline B Same State] on K4 kissing-loop RNA reporter.
Result string: 334

Query string: Recall the reported apparent KD of K4 kissing-loop reporter of AAGUGUGUGGCGGCCGCCACUAGAAUCCAGUGAUGUUGGAGUUAUCAUAUAAAUGAUAAUCAACAUAGGACCGGGCCAUAUAGAA [Same State - Tryptophan B (Freestyle 7)] on K4 kissing-loop RNA reporter and write it down.
Result string: 550

Query string: Identify measured apparent KD of K4 kissing-loop reporter obtained with K4 kissing-loop RNA reporter for AGGUUUUGCGGAGGAUAUGCACUGAGGAGGAGAAUAUAGUGAUGUUAUAUAAGAGGAAGGAGAAGAGUAGAAGGCCGUGAGGUUU [SSFMNB.N] .
Result string: 115

Origin of measurements: the supplement of paper PMC9170038
